- procedure-text: Drug uptake in Wistar rat brain at 30 mg/kg, po measured after 1 hr
- Assay type: ADME, organism-based
- stated-conditions: read-out: Drug uptake
readout: concentration at 1 h

Bench note: what concentration at 1 h did O=C(Nc1ccc(F)cc1)N1N=C(c2ccncc2)CC1c1ccc(F)cc1 (stereo unspecified) show?
2570 nM

----------
- procedure-text: Half life in Wistar rat plasma at 0.2 mg/kg, iv
- Assay type: ADME, organism-based
readout: half-life (h)
API: value field is a number in h; no unit string.

Need half-life of O=C(Nc1ccc(F)cc1)N1N=C(c2ccncc2)CC1c1ccc(F)cc1 (stereo unspecified) , thanks.
7.1

----------
- assayed-system: Voltage-dependent T-type calcium channel subunit alpha-1H (Homo sapiens)
- Sequence (O95180 whole entry): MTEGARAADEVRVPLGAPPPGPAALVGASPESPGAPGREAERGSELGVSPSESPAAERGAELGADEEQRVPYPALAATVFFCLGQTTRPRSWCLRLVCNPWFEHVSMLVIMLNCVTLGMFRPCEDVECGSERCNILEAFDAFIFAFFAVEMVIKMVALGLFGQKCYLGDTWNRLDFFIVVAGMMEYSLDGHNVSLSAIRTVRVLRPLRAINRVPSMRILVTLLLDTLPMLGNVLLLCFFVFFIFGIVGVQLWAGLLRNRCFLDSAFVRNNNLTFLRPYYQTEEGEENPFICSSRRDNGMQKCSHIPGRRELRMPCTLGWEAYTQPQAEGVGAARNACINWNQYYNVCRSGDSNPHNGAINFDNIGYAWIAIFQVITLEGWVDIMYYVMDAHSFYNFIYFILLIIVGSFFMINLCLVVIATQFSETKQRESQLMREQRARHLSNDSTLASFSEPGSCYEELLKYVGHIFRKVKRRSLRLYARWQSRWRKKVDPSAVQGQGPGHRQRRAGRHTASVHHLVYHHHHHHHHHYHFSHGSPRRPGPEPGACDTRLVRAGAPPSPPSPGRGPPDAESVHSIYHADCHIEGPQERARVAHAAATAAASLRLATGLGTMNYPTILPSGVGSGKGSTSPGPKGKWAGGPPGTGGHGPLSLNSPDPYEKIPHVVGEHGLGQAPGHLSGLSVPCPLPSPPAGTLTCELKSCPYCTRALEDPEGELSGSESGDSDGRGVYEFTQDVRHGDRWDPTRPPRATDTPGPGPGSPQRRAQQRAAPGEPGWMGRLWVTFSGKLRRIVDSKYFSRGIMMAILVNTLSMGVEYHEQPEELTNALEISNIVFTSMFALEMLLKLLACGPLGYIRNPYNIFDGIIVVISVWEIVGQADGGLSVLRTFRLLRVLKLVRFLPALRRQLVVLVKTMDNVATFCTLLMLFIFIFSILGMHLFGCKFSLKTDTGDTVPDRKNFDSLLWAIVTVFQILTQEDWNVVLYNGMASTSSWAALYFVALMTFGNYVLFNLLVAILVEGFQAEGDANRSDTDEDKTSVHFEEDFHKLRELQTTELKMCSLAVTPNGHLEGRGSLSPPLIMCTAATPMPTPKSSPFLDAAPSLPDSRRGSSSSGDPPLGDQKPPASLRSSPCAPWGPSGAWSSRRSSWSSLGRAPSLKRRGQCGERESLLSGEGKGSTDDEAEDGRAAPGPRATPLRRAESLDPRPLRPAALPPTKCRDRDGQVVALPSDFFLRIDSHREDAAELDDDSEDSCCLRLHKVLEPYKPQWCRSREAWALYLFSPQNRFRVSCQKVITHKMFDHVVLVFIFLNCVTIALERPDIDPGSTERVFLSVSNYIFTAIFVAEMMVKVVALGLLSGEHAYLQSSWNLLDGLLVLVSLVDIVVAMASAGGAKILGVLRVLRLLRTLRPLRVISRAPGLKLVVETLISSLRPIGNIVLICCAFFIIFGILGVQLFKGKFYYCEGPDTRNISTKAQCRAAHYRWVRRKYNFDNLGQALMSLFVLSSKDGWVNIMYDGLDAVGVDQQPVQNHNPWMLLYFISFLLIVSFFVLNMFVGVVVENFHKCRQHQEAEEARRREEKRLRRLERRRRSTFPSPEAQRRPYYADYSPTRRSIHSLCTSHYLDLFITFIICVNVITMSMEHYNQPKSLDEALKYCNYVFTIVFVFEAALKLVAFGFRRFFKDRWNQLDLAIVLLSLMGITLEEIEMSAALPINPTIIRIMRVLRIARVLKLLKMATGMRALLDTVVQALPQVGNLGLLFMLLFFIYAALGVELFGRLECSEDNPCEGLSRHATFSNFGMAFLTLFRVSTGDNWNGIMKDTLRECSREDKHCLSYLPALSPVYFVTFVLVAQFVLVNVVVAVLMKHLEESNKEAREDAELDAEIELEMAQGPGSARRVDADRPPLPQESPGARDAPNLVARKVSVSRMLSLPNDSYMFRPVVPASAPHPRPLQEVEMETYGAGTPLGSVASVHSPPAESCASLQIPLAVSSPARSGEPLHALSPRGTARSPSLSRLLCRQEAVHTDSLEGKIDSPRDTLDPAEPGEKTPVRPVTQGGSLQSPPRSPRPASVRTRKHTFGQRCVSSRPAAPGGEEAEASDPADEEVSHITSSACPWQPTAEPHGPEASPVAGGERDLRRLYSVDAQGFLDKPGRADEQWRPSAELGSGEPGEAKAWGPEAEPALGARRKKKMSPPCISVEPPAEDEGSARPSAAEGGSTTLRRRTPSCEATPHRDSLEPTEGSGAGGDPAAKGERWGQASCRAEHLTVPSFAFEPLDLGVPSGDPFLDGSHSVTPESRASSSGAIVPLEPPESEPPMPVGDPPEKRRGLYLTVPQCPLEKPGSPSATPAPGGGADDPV
- procedure-text: Inhibition of recombinant T-type calcium channel Cav3.2 (unknown origin) expressed in HEK293 cells assessed as inhibition of CaCl2-induced calcium influx preincubated for 3 mins prior CaCl2 addition by Fluo-4-AM dye-based FLIPR assay
- Type: cell-based
readout: pIC50
To interpret pIC50, take it as minus log10 of a concentration measured in moles per litre.

State the recorded pIC50 for this entry: O=C(Nc1ccc(F)cc1)N1N=C(c2ccncc2)C[C@@H]1c1ccc(F)cc1
6.49

Next record, please: CC(C)(C)NC(=O)CN1CCC(CNC(=O)c2cc(F)cc(Cl)c2)CC1 [ULIXACALTAMIDE]
7.14

Repeat for the following compound: O=C(Nc1ccncc1)N1N=C(c2ccccc2)CC1c1ccc(F)cc1 (centres undefined)
6.69

And the next one, O=C(NC1CCCCC1)N1N=C(c2ccc(Br)cc2)CC1c1ccc(F)cc1 (centres undefined) ?
6.50

Same question, O=C(Nc1ccc(F)cc1)N1N=C(c2ccccc2)CC1c1ccc(F)cc1 (centres undefined) this time
7.60

What do we get for Cc1ccc(C2(CCO)CC(c3ccncc3)=NN2C(=O)Nc2ccc(F)cc2)cc1 (centres undefined) ?
6.48

Same question, CC1=NN(C(=O)Nc2ccc(F)cc2)C(c2ccc(F)cc2)C1 (centres undefined) this time
6.05

For O=C(Nc1ccc(F)cc1)N1N=C(c2ccccc2)CC1(CO)c1ccc(F)cc1 (centres undefined) then?
7.15

// query: CC(C)c1ccc(CC(=O)N[C@H](C)c2ccc(OCC(F)(F)F)cn2)cc1 [SUVECALTAMIDE]
8.09

Moving on to O=C(Nc1ccccc1)N1N=C(c2ccc(Br)cc2)CC1c1ccc(F)cc1 (centres undefined)
7.17

Cool, now CS(=O)(=O)c1ccc(C2CC(c3ccccc3)=NN2C(=O)Nc2ccc(F)cc2)cc1 (centres undefined)
7.40

And what about the compound O=C(Nc1ccc(F)cc1)N1N=C(c2ccc(Br)cc2)CC1c1ccc(F)cc1 (centres undefined) ?
7.80

And then Fc1ccc(NC(=S)N2N=C(c3ccc(Br)cc3)CC2c2ccc(F)cc2)cc1 (centres undefined) , what is it?
6.55

What about O=C(NCCc1ccccc1)N1N=C(c2ccc(Br)cc2)CC1c1ccc(F)cc1 (centres undefined) ?
6.38

----------
- System: MDR1
- procedure-text: Apparent permeability across apical to basolateral side in MDCK cells expressing MDR1 (unknown origin) at 1 uM
- Format: ADME, cell-based, Canis lupus familiaris
- stated-conditions: dog
readout: Papp A→B at 1 µM (×10⁻⁶ cm/s)
// units = ×10⁻⁶ cm/s; emit number, no label

What Papp A→B at 1 µM appears in the records for this compound with MDR1? O=C(Nc1ccc(F)cc1)N1N=C(c2ccncc2)CC1c1ccc(F)cc1 (stereo not drawn)
45

COc1ccc(C2=NN(C(=O)Nc3ccc(Cl)cc3)[C@](CCO)(c3cccnc3)C2)cc1 ?
5.3

And for CS(=O)(=O)c1ccc(C2(CCO)CC(c3ccccc3)=NN2C(=O)Nc2ccc(F)cc2)cc1 (stereo not drawn) ?
0.6
